This collection of values is drawn from the supplement of paper PMC10307832.

I'd appreciate it if you could supply relative viability values for the items below.
Test system: NCI-H2347
ASSAY_COMMENT: relative viability (nuclei count vs DMSO), 5 days (fraction); higher = more cells survive
EXPERIMENTAL_PARAMETERS: first compound 0.3162 µM
Please give only the number in your answer, with no unit.

Consider CCN(CC)CCCCNc1ncc2cc(-c3cc(OC)cc(OC)c3)c(NC(=O)NC(C)(C)C)nc2n1 + Cc1cc(Nc2cc(N3CCN(C)CC3)nc(Sc3ccc(NC(=O)C4CC4)cc3)n2)n[nH]1 [Tozasertib] (partner 0.1 µM) . Its measured relative viability is 0.607

Consider CCN(CC)CCCCNc1ncc2cc(-c3cc(OC)cc(OC)c3)c(NC(=O)NC(C)(C)C)nc2n1 + Cc1nc(Nc2ncc(C(=O)Nc3c(C)cccc3Cl)s2)cc(N2CCN(CCO)CC2)n1 [Dasatinib] (partner 0.075 µM) . Its measured relative viability is 0.288

Consider CCN(CC)CCCCNc1ncc2cc(-c3cc(OC)cc(OC)c3)c(NC(=O)NC(C)(C)C)nc2n1 + Nc1nc2[nH]cc(CCc3ccc(C(=O)N[C@@H](CCC(=O)O)C(=O)O)cc3)c2c(=O)[nH]1 [Pemetrexed] (partner 0.2 µM) . Its measured relative viability is 0.412

* * *

I'd appreciate it if you could supply relative viability values for the items below.
Test system: NCI-H1915
ASSAY_COMMENT: relative viability (nuclei count vs DMSO), 5 days (fraction); higher = more cells survive
EXPERIMENTAL_PARAMETERS: first compound 1 µM
Please give only the number in your answer, with no unit.

Consider O=c1cc(N2CCOCC2)oc2c(-c3cccc4c3sc3ccccc34)cccc12 + N=C(N)NC(=N)NCCc1ccccc1 [Phenformin] (partner 250 µM) . Its measured relative viability is 0.369

Consider CCN(CC)CCCCNc1ncc2cc(-c3cc(OC)cc(OC)c3)c(NC(=O)NC(C)(C)C)nc2n1 + Cc1nc(Nc2ncc(C(=O)Nc3c(C)cccc3Cl)s2)cc(N2CCN(CCO)CC2)n1 [Dasatinib] (partner 0.075 µM) . Its measured relative viability is 0.297

Consider CCN(CC)CCCCNc1ncc2cc(-c3cc(OC)cc(OC)c3)c(NC(=O)NC(C)(C)C)nc2n1 + CC(=O)Nc1cccc(-n2c(=O)n(C3CC3)c(=O)c3c(Nc4ccc(I)cc4F)n(C)c(=O)c(C)c32)c1 [Trametinib] (partner 0.02 µM) . Its measured relative viability is 0.233

* * *

Tested on: NCI-H650
ASSAY_COMMENT: relative viability (nuclei count vs DMSO), 5 days (fraction); higher = more cells survive
EXPERIMENTAL_PARAMETERS: first compound 2 µM
OUTCOME_MEASURE: relative viability
Please give only the number in your answer, with no unit.

Consider COCC1(CO)C(=O)C2CCN1CC2 (stereo not drawn) [PRIMA-1MET] + CC(C)C[C@H](NC(=O)[C@H](Cc1ccccc1)NC(=O)c1cnccn1)B(O)O [Bortezomib] (partner 0.002 µM) . Its measured relative viability is 0.816

Consider COCC1(CO)C(=O)C2CCN1CC2 (stereo not drawn) [PRIMA-1MET] + Cc1nc(Nc2ncc(C(=O)Nc3c(C)cccc3Cl)s2)cc(N2CCN(CCO)CC2)n1 [Dasatinib] (partner 0.075 µM) . Its measured relative viability is 0.469

Consider COCC1(CO)C(=O)C2CCN1CC2 (stereo not drawn) [PRIMA-1MET] + CC(=O)Nc1cccc(-n2c(=O)n(C3CC3)c(=O)c3c(Nc4ccc(I)cc4F)n(C)c(=O)c(C)c32)c1 [Trametinib] (partner 0.02 µM) . Its measured relative viability is 0.762
